test system: vaccinia virus; experiment: microbe, parasite or virus in culture; type: cell-based, Vaccinia virus (WR strain); conditions: Orthopoxvirus vaccinia, BSC-1, read-out: IC50 (antiviral)
pIC50: −log10 of the molar value.
Readout Name: pIC50

Record Cc1ccc2[nH]c(C(=O)O)c(Sc3ccc(Cl)cc3)c2c1 [Compound 1b] . Reported pIC50: 4.07 to 4.34

Record Cc1cccc2c(Sc3ccc(Cl)cc3)c(C(=O)O)[nH]c12 [Compound 1c] . Reported pIC50: 4.07 to 4.34

Record Cc1cccc2[nH]c(C(=O)O)c(Sc3ccc(Cl)cc3)c12 [Compound 1a] . Reported pIC50: 4.07 to 4.34

Data origin, for the record: patent US9233921B2
